# System: LOX IMVI
# assay method text: Antiproliferative activity against human LOX IMVI cells assessed as cell growth inhibition at 10 uM incubated for 48 hrs by sulforhodamine B assay relative to control
# Type: functional
Would you mind classing the entries by inhibition at 10 µM? Ranges: c1 = under 10%, c2 = from 10% up to 40%, c3 = 40% and over

structure as smiles | class label
Fc1ccccc1-c1cn2ccnc2c(-c2ccc3ncn(C4CCCCC4)c3c2)n1 | c1
c1csc(-c2cn3ccnc3c(-c3ccc4ncn(C5CCCCC5)c4c3)n2)c1 | c1
Cc1cccc(-c2cn3ccnc3c(-c3ccc4ncn(Cc5ccccc5)c4c3)n2)c1 | c2
c1ccc2c(-c3cn4ccnc4c(-c4ccc5ncn(C6CCCCC6)c5c4)n3)cccc2c1 | c1
Brc1cn2ccnc2c(-c2ccc3ncn(C4CCCCC4)c3c2)n1 | c2
c1cn2cc(-c3ccc4c(c3)ncn4C3CCCCC3)nc(-c3ccc4ncn(C5CCCCC5)c4c3)c2n1 | c2
c1cn2cc(-c3ccsc3)nc(-c3ccc4ncn(C5CCCCC5)c4c3)c2n1 | c1
Brc1ccc(-c2cn3ccnc3c(-c3ccc4ncn(C5CCCCC5)c4c3)n2)cc1 | c2
O=Cc1ccc(-c2cn3ccnc3c(-c3ccc4ncn(C5CCCCC5)c4c3)n2)cc1 | c3
Clc1ccc(-c2cn3ccnc3c(-c3ccc4ncn(C5CCCCC5)c4c3)n2)cc1 | c2
COc1ccc(-c2cn3ccnc3c(-c3ccc4ncn(C5CCCCC5)c4c3)n2)cc1 | c3
CCc1ccc(-c2cn3ccnc3c(-c3ccc4ncn(Cc5ccccc5)c4c3)n2)cc1 | c3
FC(F)(F)c1cccc(-c2cn3ccnc3c(-c3ccc4ncn(C5CCCCC5)c4c3)n2)c1 | c1
O=Cc1ccc(-c2cn3ccnc3c(-c3ccc4ncn(Cc5ccccc5)c4c3)n2)cc1 | c3
c1cn2cc(-c3ccc4ncn(C5CCCCC5)c4c3)nc(-c3ccc4ncn(C5CCCCC5)c4c3)c2n1 | c3
